measurement_notes: AUC in cynomolgus monkey at 2.5 mg/kg, iv
Type: ADME, organism-based, Macaca fascicularis
Parameters: dose 2.5 mg/kg, route intravenous
condition: plasma
observation_type: AUC (µg·h/mL)
Supply the numeric figure in µg·h/mL, leaving out any unit text.

For C#C[C@H]1CC[C@@H](C#N)N1C(=O)CNC1(C)CCN(c2cc(C(=O)O)ccn2)CC1 the compound record lists AUC as 5.2

###

measurement_notes: Volume of distribution in terminal phase in Sprague-Dawley rat at 5 mg/kg, iv
Format: ADME, organism-based
Design: dose 5 mg/kg, route intravenous
condition: in vivo, read-out: Vbeta
observation_type: Vd

For C#C[C@H]1CC[C@@H](C#N)N1C(=O)CNC1(C)CCN(c2cc(C(=O)O)ccn2)CC1 the compound record lists Vd as 6.7 L/kg

###

measurement_notes: Half life in cynomolgus monkey at 2.5 mg/kg, po
Format: ADME, organism-based, Macaca fascicularis
Set-up: dose 2.5 mg/kg, route oral
condition: in vivo
observation_type: half-life (h)
Supply the numeric figure in h, leaving out any unit text.

For C#C[C@H]1CC[C@@H](C#N)N1C(=O)CNC1(C)CCN(c2cc(C(=O)O)ccn2)CC1 the molecule record lists half-life as 2
